- TESTED SYSTEM: Sphingosine 1-phosphate receptor 3 (Homo sapiens) (UniProt Q99500)
- Sequence (Q99500 whole entry, looked up): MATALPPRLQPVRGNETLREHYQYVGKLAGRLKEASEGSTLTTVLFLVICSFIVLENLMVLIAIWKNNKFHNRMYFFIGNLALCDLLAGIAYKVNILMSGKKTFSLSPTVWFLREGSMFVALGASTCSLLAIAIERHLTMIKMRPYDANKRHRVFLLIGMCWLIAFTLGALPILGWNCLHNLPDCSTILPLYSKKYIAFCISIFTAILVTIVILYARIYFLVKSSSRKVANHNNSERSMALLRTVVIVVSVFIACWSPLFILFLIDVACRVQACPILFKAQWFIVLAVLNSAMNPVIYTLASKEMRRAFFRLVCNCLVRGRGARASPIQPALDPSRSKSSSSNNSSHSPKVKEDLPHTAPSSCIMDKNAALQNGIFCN
- PROCEDURE DETAILS: blockers of human S1PR3 signaling – cell-based, fluorescence, dose response, late-stage follow-up (AID 743434)
- CONDITION SUMMARY: S1P3-expressing cells, fluorescence antagonist assay
METRIC: IC50

> print(dat)
                                   molecule  observed
1  O=C(NC(c1ccc(Br)cc1)c1nc(-c2ccccc2)no1)c1ccc(Cl)c(Cl)c1 (centres undefined)    214 nM

Task: For the molecule O=C(NC(c1ccc(Cl)c(Cl)c1)c1nc(-c2ccccc2)no1)c1cccc(Cl)c1 (centres undefined) , give its measured IC50 value.
Output: 53 nM

Task: Give the reported value of IC50 for this record: O=C(NC(c1cccc(Cl)c1)c1nc(-c2ccccc2)no1)c1cc(Cl)cc(Cl)c1 (centres undefined)
Output: 33 nM

Task: Answer with reported IC50 of O=C(NC(Cc1ccccc1)c1nc(-c2ccccc2)no1)c1cccc(Cl)c1 (centres undefined)
Output: 5700 nM
